B1: library; a variant is named by its letters at X, in order (parent)
chain: MNIQIGELAKRTACPVVTIRFYEQEGLLPPPGRSRGNFRLYGEEHVERLQFIRHCRSLDMPLSDVRTLLSYRKRPDQDCGEVXMLLDEHIRQVESRIGALLELKHHLVELREACSGARPAQSCGILQXLSXCVCXTRGTTAHXSD

variants of: B1; test: sfGFP reporter fluorescence (15 h) (µM FITC); higher = higher leak; details: library round: Round 2; ligand: none
Assign Condition met whenever sfGFP reporter fluorescence does not fall below 0.06; assign Condition not met whenever it does.

Use these answered entries as a reference point.
NGDAP M60L D64K    Condition met
MGSDA    Condition not met
NTDAP M60L P61N D64K    Condition met
NGDDR T136A T140A    Condition not met

Hello, I need to know if TGDDP D64T R111L has measured sfGFP reporter fluorescence not below 0.06. Thanks!
Condition met

Hello, I need to know if NGCDP M60L P61N D64K K104V has measured sfGFP reporter fluorescence not below 0.06. Thanks!
Condition met
